The measured values listed here are drawn from a melting point compilation (Tetko et al.; mined from patent text by program, amines drawn as free bases though some values may be those of a salt).

# key: entry, value: melting point
endpoint.label: melting point

CCCCCCOc1ccc(C(=O)NC2CCC(C)(C)C2)cc1 (stereo unspecified)	82 to 83 °C
CCCC(C(C)=CC(CNC(=O)Cc1cccnc1)=NO)[N+](=O)[O-] (stereo unspecified)	128 to 129 °C
Cc1ccc2c(c1)C(=O)c1ccccc1CO2	100 to 103 °C
CC(C)n1nc(-c2nc(C(N)=O)c(N)nc2-c2cccs2)ccc1=O	238 to 240 °C
CC1C[C@H]2[C@@H](O1)[C@H](N=[N+]=[N-])C(=O)N2Cc1ccccc1 (relative stereo)	70 to 73 °C
O=c1ccocc1OCc1ccccc1	82 to 85 °C
CCCC/C(=C\C=C\C(=O)Oc1ccc([N+](=O)[O-])cc1)c1ccc(OC)cc1	78 to 80 °C
CC(C)NC(=O)Oc1ccc2c(N(C)CCN3CCOCC3)noc2c1	99 to 100 °C
NC(=O)c1cnc2n(c1=O)CCCCC2	234 to 235 °C
COc1cccc2c1C13CCNC(C2)C1(O)CCC(=O)C3 (stereo unspecified)	137 to 139 °C
C#CCc1c(C)nc2c(NCc3ccccc3C)cccn12	126 to 128 °C
CC1(C)COC(c2cc(I)cc(C(F)(F)F)c2)=N1	73 to 74.5 °C
Cc1ccc(S(=O)(=O)C(C)(C)C(=O)C2CCCCC2)cc1	123 to 124 °C
CC(C)(C)C(=O)OC(COc1cccc2[nH]nnc12)CN1CCC(COc2ccccc2)CC1 (stereo unspecified)	131 to 133 °C
Cc1ccc(C2c3c(C)c(N4CCN(C(=O)c5ccc(C#N)cc5)CC4)c(C)c(C)c3OC2(C)C)cc1 (stereo unspecified)	159 to 161 °C
CCCCCCCCCC(CCCCCCCCC)N1C(=O)c2ccc3c4cccc5cccc(c6ccc(c2c36)C1=O)c54	143 to 144 °C
Cc1nc(CS(=O)(=O)c2cccs2)sc1-c1ccnc(Nc2ccc(N3CCOCC3)cc2)n1	187 to 189 °C
CN1C(=O)C(N)C(=O)N(C23CC4CC(CC(C4)C2)C3)c2ccccc21 (stereo unspecified)	194 °C
NC(=O)C(Br)c1c(Cl)cc([N+](=O)[O-])cc1Cl (stereo unspecified)	195 to 197 °C
OC(Cc1ccc(Cl)cc1)(Cn1ccnc1)c1ccc(-c2ccccc2)cc1 (stereo unspecified)	182 °C
O=C(O)c1cc(-c2ccc(Cl)cc2)nc(-c2ccc(Cl)c(Cl)c2)c1	303 to 304 °C
CNC(=O)NS(=O)(=O)c1cc2c(cc1OC)OCC(NC(=O)c1cc(F)ccc1OC)C2 (stereo unspecified)	260 °C
CCN(CC)C(=O)Cc1c(N)n[nH]c1-c1ccc(OC)cc1	154 to 158 °C
CC(=O)N1c2ccccc2-c2c([N+](=O)[O-])cnn2C1C (stereo unspecified)	149 to 150 °C
CC(C)[Si](Oc1ccc2c(c1)CN(Nc1ccccn1)C2)(C(C)C)C(C)C	95 to 96 °C
CC(C)c1nc2c(nc1C(C)C)C(=O)CCC2	92 to 94 °C
